All figures here come from BindingDB's records for patent US9777020.

molecular target: High affinity nerve growth factor receptor (Homo sapiens)
Sequence (P04629 whole entry): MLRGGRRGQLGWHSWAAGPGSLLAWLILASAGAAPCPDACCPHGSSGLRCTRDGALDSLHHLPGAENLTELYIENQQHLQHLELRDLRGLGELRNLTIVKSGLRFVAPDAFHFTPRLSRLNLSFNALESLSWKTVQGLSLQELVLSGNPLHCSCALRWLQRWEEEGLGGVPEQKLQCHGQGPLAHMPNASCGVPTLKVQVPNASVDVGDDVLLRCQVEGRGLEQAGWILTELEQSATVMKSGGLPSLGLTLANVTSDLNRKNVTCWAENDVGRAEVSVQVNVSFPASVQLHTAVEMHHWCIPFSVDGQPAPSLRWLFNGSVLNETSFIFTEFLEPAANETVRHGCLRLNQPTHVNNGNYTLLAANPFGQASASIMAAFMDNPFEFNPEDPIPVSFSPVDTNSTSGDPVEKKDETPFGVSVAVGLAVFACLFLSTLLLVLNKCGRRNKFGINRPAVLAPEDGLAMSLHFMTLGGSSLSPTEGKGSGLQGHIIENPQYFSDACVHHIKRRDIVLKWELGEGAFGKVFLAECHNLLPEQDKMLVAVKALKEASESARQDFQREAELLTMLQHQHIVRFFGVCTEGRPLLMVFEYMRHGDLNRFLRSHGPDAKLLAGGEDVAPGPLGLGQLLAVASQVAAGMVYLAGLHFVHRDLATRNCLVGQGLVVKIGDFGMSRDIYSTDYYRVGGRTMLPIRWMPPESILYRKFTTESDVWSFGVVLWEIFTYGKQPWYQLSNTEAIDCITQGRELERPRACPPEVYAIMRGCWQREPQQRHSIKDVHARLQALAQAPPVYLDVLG
PROPERTY_LABEL: IC50 (µM)
Please give a number only; it is taken to be in µM.

Please report the recorded IC50 for CCOc1nc(N2CCOCC2)ccc1NC(=O)c1coc2c1C(=O)NCC2 .
0.0286
